Source: ChEMBL document CHEMBL3576784

Ki reference
tested system: Beta-lactamase (Aeromonas veronii)
Sequence (O31272 whole entry): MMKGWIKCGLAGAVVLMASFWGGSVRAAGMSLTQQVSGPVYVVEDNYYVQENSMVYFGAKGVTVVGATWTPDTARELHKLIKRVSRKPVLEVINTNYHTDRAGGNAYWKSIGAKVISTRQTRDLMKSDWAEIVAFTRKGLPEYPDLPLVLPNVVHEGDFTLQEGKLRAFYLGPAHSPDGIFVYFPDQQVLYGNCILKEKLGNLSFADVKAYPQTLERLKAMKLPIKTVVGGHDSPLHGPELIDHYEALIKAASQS
test details: Inhibition of Aeromonas veronii metallo-beta-lactamase ImiS expressed in Escherichia coli BL21(DE3) using imipenem substrate pre-incubated for 30 mins by Lineweaver-Burk plot method
recorded conditions: read-out: Ki

Use the examples below as a reference point.
| cpd smiles | recorded value |
| --- | --- |
| O=C(O)CCc1nnc(SCC(=O)Nc2ccc(Cl)cc2)[nH]1 | > 5 mM |
| O=C(O)CCc1nnc(SCC(=O)Nc2nc3ccccc3[nH]2)[nH]1 | > 2.5 mM |

### Prompt Entry under review: O=C(O)CCc1nnc(SCC(=O)Nc2ccccc2)[nH]1 . Reported Ki?
### Response > 5 mM
